Data credit: the supplement of paper PMC10065799

Quick list: phosphorylation enrichment per entry.
# study-target: MERTK (UniProt Q12866)
# Sequence (Q12866 whole entry, looked up): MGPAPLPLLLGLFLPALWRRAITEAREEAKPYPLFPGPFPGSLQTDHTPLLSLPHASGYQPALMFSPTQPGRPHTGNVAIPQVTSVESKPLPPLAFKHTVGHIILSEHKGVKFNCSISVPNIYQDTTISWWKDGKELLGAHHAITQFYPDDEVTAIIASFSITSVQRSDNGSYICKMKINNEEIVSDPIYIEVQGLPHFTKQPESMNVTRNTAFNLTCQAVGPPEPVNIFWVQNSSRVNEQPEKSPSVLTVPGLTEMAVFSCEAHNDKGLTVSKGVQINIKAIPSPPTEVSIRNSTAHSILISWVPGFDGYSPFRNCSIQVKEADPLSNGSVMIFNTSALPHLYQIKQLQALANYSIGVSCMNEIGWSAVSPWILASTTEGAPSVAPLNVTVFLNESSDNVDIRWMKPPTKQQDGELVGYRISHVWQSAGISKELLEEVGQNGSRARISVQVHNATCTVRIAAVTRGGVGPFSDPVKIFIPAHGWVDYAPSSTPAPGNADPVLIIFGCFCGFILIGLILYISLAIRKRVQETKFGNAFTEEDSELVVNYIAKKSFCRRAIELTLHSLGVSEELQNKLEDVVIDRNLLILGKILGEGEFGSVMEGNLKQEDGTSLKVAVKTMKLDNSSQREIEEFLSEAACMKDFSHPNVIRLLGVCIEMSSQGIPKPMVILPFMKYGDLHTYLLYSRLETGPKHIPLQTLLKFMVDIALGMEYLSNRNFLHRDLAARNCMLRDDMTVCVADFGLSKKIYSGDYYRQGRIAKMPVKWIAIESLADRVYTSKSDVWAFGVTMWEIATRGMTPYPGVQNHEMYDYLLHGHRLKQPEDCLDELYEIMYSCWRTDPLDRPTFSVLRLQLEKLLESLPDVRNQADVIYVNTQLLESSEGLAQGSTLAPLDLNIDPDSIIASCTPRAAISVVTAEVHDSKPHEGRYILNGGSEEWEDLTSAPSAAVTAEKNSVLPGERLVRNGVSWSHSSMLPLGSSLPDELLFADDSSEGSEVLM
# test-description: phosphorylation enrichment, bacterial display (enrichment ratio); higher = better substrate or ligand; peptides without Tyr show the background;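 note: 11-residue human phosphosite peptides and single-mutation variants displayed on the E. coli surface, counted by deep sequencing, each peptide's frequency after selection divided by its frequency in the unselected input library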;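 note: frequency after pTyr selection over input frequency; kinase dosed for 20-30% of maximal phosphorylation in three min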
reported-property: phosphorylation enrichment

{"sequence-input": "KPPFSYNALIM [FOXG1_Y186]", "reported-property": "phosphorylation enrichment", "measurement": 0.525}
{"sequence-input": "VDSLRYIYPKL [EIF2B3_Y92_A87V]", "reported-property": "phosphorylation enrichment", "measurement": 0.489}
{"sequence-input": "EDSEFYKAFEE [CASQ2_Y179_YF]", "reported-property": "phosphorylation enrichment", "measurement": 0.454}
{"sequence-input": "QLFGAYLRIHA [BSCL2_Y213_YF]", "reported-property": "phosphorylation enrichment", "measurement": 0.599}
{"sequence-input": "KSLSQYLEMDK [CAGE1_Y438_V435L]", "reported-property": "phosphorylation enrichment", "measurement": 0.446}
{"sequence-input": "EQMASYFGHSV [ITGA2B_Y319]", "reported-property": "phosphorylation enrichment", "measurement": 0.425}
{"sequence-input": "PMFHSYVSLPF [PLXNA2_Y293_K289M]", "reported-property": "phosphorylation enrichment", "measurement": 1.2}
{"sequence-input": "STFVPYEIKVQ [L1CAM_Y784]", "reported-property": "phosphorylation enrichment", "measurement": 0.338}
{"sequence-input": "TYVVLYDAELT [ERCC4_Y581_R576T]", "reported-property": "phosphorylation enrichment", "measurement": 2.56}
{"sequence-input": "FFIMMYTGSNV [DNAJC13_Y1131]", "reported-property": "phosphorylation enrichment", "measurement": 0.477}
{"sequence-input": "NTGGFYDLFGG [PTPN11_Y63_D61G_YF]", "reported-property": "phosphorylation enrichment", "measurement": 9.2}
{"sequence-input": "KQQEIYQELTQ [CD209_Y239]", "reported-property": "phosphorylation enrichment", "measurement": 4.81}
{"sequence-input": "LNLKEYNLVGG [GNAQ_Y356]", "reported-property": "phosphorylation enrichment", "measurement": 0.424}
{"sequence-input": "APQYTYAQGGQ [FLNA_Y1763]", "reported-property": "phosphorylation enrichment", "measurement": 0.486}
{"sequence-input": "AAARPYHIQKW [ACSBG1_Y677]", "reported-property": "phosphorylation enrichment", "measurement": 0.377}
{"sequence-input": "FFDANCDGKEF [MAPRE2_Y162_Y162C_YF]", "reported-property": "phosphorylation enrichment", "measurement": 0.472}
{"sequence-input": "TRVMEYISCLD [CLTCL1_Y1043_R1046C]", "reported-property": "phosphorylation enrichment", "measurement": 0.507}
{"sequence-input": "EDGFAYVPLKD [PRIM2_Y208]", "reported-property": "phosphorylation enrichment", "measurement": 0.42}
{"sequence-input": "VGTTAYVAPEA [IRAK4_Y354_M355V]", "reported-property": "phosphorylation enrichment", "measurement": 0.427}
{"sequence-input": "FASALYGQRRS [FGF11_Y162_R163G_YF]", "reported-property": "phosphorylation enrichment", "measurement": 0.516}
{"sequence-input": "AKLVQYYMEHH [PTPN11_Y80_E76K]", "reported-property": "phosphorylation enrichment", "measurement": 0.983}
{"sequence-input": "HSREDYFECFQ [ZIM2_Y411_Q408R]", "reported-property": "phosphorylation enrichment", "measurement": 0.721}
{"sequence-input": "ALTDNYMFLVI [HAGH_Y61_YF]", "reported-property": "phosphorylation enrichment", "measurement": 1.97}
{"sequence-input": "ETDSEYVKLSK [C7orf57_Y70_A74S]", "reported-property": "phosphorylation enrichment", "measurement": 0.435}
{"sequence-input": "ETESPYQELQG [TYROBP_Y91]", "reported-property": "phosphorylation enrichment", "measurement": 0.669}
{"sequence-input": "TGSFTCEAVEL [MTMR14_Y462_Y462C]", "reported-property": "phosphorylation enrichment", "measurement": 0.419}
{"sequence-input": "APIEDYGGGGG [B4GALT6_Y382]", "reported-property": "phosphorylation enrichment", "measurement": 0.461}
{"sequence-input": "WPLKWYAPECI [ZAP70_Y506]", "reported-property": "phosphorylation enrichment", "measurement": 0.433}
{"sequence-input": "RVKPIYFHTQG [AR_Y916_K911R]", "reported-property": "phosphorylation enrichment", "measurement": 0.763}
{"sequence-input": "AAVLNYKAGRD [GRIN2A_Y737]", "reported-property": "phosphorylation enrichment", "measurement": 0.41}
{"sequence-input": "RSGIYYKPESL [L2HGDH_Y103_H98R]", "reported-property": "phosphorylation enrichment", "measurement": 17}
{"sequence-input": "VHHLVYHHHHH [CACNA1H_Y519]", "reported-property": "phosphorylation enrichment", "measurement": 0.52}
{"sequence-input": "RGESFYQDRMN [RARS_Y338]", "reported-property": "phosphorylation enrichment", "measurement": 0.469}
{"sequence-input": "FISVGYVDGTQ [HLA-B_Y51_D54G]", "reported-property": "phosphorylation enrichment", "measurement": 0.348}
{"sequence-input": "PCLLRYLQLDF [ASB10_Y457_R453C]", "reported-property": "phosphorylation enrichment", "measurement": 0.733}
{"sequence-input": "QAKRKYQEVSK [FES_Y156_A159V]", "reported-property": "phosphorylation enrichment", "measurement": 0.311}
{"sequence-input": "TFGQVYKGRHV [TNIK_Y40_YF]", "reported-property": "phosphorylation enrichment", "measurement": 0.34}
{"sequence-input": "GQKVAYGGTGD [ALDH3A1_Y305]", "reported-property": "phosphorylation enrichment", "measurement": 0.412}
{"sequence-input": "NTGLEYIKFTW [HRH1_Y386_D385E]", "reported-property": "phosphorylation enrichment", "measurement": 0.474}
{"sequence-input": "CTHDLYMIMRE [FGFR3_Y724]", "reported-property": "phosphorylation enrichment", "measurement": 1.18}
{"sequence-input": "GKFFQYDTWNQ [IGF2_Y116_K120N]", "reported-property": "phosphorylation enrichment", "measurement": 0.588}
{"sequence-input": "ERDYTYEELLN [EIF2S2_Y176]", "reported-property": "phosphorylation enrichment", "measurement": 0.426}
{"sequence-input": "GLRFGYGVLGG [KRTAP20-2_Y15_YF]", "reported-property": "phosphorylation enrichment", "measurement": 0.311}
{"sequence-input": "MSSLPYMKMIF [SLC4A11_Y853]", "reported-property": "phosphorylation enrichment", "measurement": 0.566}
{"sequence-input": "ALVDTYCRHNY [HLA-DRB1_Y107_A103L]", "reported-property": "phosphorylation enrichment", "measurement": 0.618}
{"sequence-input": "VLDSHYPEDEV [C1QBP_Y188_C186S]", "reported-property": "phosphorylation enrichment", "measurement": 0.488}
{"sequence-input": "LGIDRYHAIVY [NPSR1_Y147_S143G]", "reported-property": "phosphorylation enrichment", "measurement": 0.446}
{"sequence-input": "QMQAAYQKAVA [HBD_Y131_V134A]", "reported-property": "phosphorylation enrichment", "measurement": 0.368}
{"sequence-input": "HELFVYKCDEN [DOCK3_Y548_YF]", "reported-property": "phosphorylation enrichment", "measurement": 0.76}
{"sequence-input": "LLVVVYKFRCF [PSEN1_Y154_L153V_YF]", "reported-property": "phosphorylation enrichment", "measurement": 0.463}
{"sequence-input": "TLLAFYMGNFS [GLB1_Y552_P549L]", "reported-property": "phosphorylation enrichment", "measurement": 0.625}
{"sequence-input": "LFDHIYTTQSD [RET_Y928]", "reported-property": "phosphorylation enrichment", "measurement": 1.96}
{"sequence-input": "DYDHSYYFIAT [ESD_Y262_G257D]", "reported-property": "phosphorylation enrichment", "measurement": 3.77}
{"sequence-input": "TYGVVYRAKDK [CDK11B_Y453]", "reported-property": "phosphorylation enrichment", "measurement": 1.31}
{"sequence-input": "LEPHIYAVADV [MYO9A_Y216]", "reported-property": "phosphorylation enrichment", "measurement": 1.28}
{"sequence-input": "TSQSQYSSFRE [CCDC170_Y323_F324S]", "reported-property": "phosphorylation enrichment", "measurement": 0.57}
{"sequence-input": "PESCLYKESWI [IQGAP2_Y630_L635I]", "reported-property": "phosphorylation enrichment", "measurement": 0.6}
